# Target Entity: UniProtKB P30518
# Sequence (P30518 whole entry): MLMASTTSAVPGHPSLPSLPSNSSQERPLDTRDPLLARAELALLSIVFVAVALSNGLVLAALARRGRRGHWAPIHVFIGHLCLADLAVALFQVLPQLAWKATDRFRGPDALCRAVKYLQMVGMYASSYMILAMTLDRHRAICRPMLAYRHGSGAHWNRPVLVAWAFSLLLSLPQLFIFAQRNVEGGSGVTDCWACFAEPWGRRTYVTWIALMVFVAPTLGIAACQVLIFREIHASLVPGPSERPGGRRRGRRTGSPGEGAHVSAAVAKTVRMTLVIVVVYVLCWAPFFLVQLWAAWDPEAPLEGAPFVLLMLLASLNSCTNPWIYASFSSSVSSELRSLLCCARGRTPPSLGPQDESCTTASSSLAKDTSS
# Method Notes: Cellular in vitro assay for determining vasopressin receptor activity, V2 receptor cell line (CRE-luciferase)
# Applied Conditions: CHO cell line transfected with the human V2 receptor; [Arg8]-vasopressin at EC50 concentration; read-out: IC50 hV2
Result Type: IC50 (nM)

P: O=c1n(Cc2nc(C(O)C(F)(F)F)n(-c3cccc(Cl)c3)n2)nc(-c2ccc(Cl)cc2)n1C[C@H](O)C(F)(F)F (single isomer, unassigned) [Example 12]
Q: CC(C)(O)c1nc(Cn2nc(-c3ccc(Cl)cc3)n(C[C@H](O)C(F)(F)F)c2=O)nn1-c1ccccc1Cl
QUERY: Identify the item whose IC50 is the smaller number: P or Q Label of pick, please.
RESULT: Q

The reported measurements were obtained from patent US10927098B2.
